Measurement Protocol: qHTS assay to identify small molecule antagonists of the thyroid receptor (TR) signaling pathway (AID 743065); note: nearly all actives have a fitted effect of over 55% in size
Assay Context: GH3.TRE-Luc, T3-stimulated luciferase inhibition, 23.5 h; series mostly up to 70.3 µM
Text: U.S. Tox21 Program National Center for Advancing Translational Sciences [NCATS] NIH Chemical Genomics Center [NCGC] U.S. Environmental Protection Agency [EPA] National Institutes of Environmental Health Sciences [NIEHS] National Toxicology Program [NTP] U.S. Food and Drug Administration [FDA] Tox21 Assay Overview: Thyroid receptor (TR), a nuclear hormone receptor, plays an important role in development, proliferation, differentiation, metabolism, brain function, and cardiovascular system. […]
Results filed as inconclusive are left out. Active and inactive are the calls of the source. Calls come from the whole dose curve; as a rule, active = well fitted inhibition curve with a large enough effect in the repeat runs; inconclusive = weak or mixed curves; inactive = no such curve, though single readings can be large or run the other way.
Write down the outcome that applies. Available outcomes: True for active, False for inactive

- Compound: "CC1(C)C(=O)NC(=O)NC1=O"
  Group: "False"
- Compound: "COc1cc(C[C@@H](C)N)c(OC)cc1C"
  Group: "True"
- Compound: "Cc1cc(C)c(C(=O)P(=O)(C(=O)c2c(C)cc(C)cc2C)c2ccccc2)c(C)c1"
  Group: "False"
- Compound: "Nc1cc(Cl)ccc1O"
  Group: "True"
- Compound: "C[C@@H]1CN(C2CCC(C#N)(c3ccc(F)cc3)CC2)CC[C@]1(C(=O)O)c1ccccc1 (stereo not given in full)"
  Group: "False"

Q: Test call for this compound, please: N#CC(CCc1ccc(Cl)cc1)(Cn1cncn1)c1ccccc1 (stereo not given)
A: True

Q: Test call for this compound, please: "COC(=O)c1ccccc1S(=O)(=O)NC(=O)N(C)c1nc(C)nc(OC)n1"
A: False

Q: Test call for this compound, please: "O=NN1CCN(N=O)CC1"
A: False

Q: Test call for this compound, please: "CNC(=O)O/N=C(\C)SC"
A: False

Q: Test call for this compound, please: "O=C(Nc1ccccc1)c1ccccc1I"
A: False

Q: Test call for this compound, please: "COc1ccc(C(=O)N2CCCC2=O)cc1"
A: False

Q: Test call for this compound, please: Fc1ccc(C2(Cn3cncn3)OC2c2ccccc2Cl)cc1 (stereo not given)
A: True

Q: Test call for this compound, please: CC(C=O)Cc1ccc2c(c1)OCO2 (stereo not given)
A: False

Q: Test call for this compound, please: "O=NN1CCCCC1"
A: False

Q: Test call for this compound, please: "CC(C)[N+](=O)[O-]"
A: False

###

Measurement Protocol: qHTS assay to identify small molecule agonists of H2AX - cell viability counter screen (AID 1224847);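 note: wild-type CHO-K1 cells; top concentration of the series differs between compounds; nearly all actives have a fitted effect of over 30% in size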
Assay Context: CHO-K1 viability, CellTiter-Glo luminescence, 3 h; series mostly up to 154 µM
Records with an inconclusive call do not appear. Activity calls are given as the source filed them. Calls come from the whole dose curve.
Metric Name: outcome

- Compound: "CNC(=O)N(C)c1nc2ccccc2s1"
  outcome: "inactive"
- Compound: "N#CCBr"
  outcome: "inactive"
- Compound: "NC1=NC(=O)C(c2ccccc2)O1 (centres undefined)"
  outcome: "inactive"
- Compound: "CC(C(=O)c1ccccc1)N(C)C (centres undefined)"
  outcome: "inactive"
- Compound: "CCN(CC)C(C)C(=O)c1ccccc1 (centres undefined)"
  outcome: "inactive"
- Compound: "CSc1ccc(C(=O)C(C)(C)N2CCOCC2)cc1"
  outcome: "inactive"
- Compound: "O=C1OC(=O)C2C1C1(Cl)C(Cl)=C(Cl)C2(Cl)C1(Cl)Cl (centres undefined)"
  outcome: "inactive"
- Compound: "BrCCCCCCBr"
  outcome: "inactive"
- Compound: "O=C(CCCN1CCC(n2c(=O)[nH]c3ccccc32)CC1)c1ccc(F)cc1"
  outcome: "inactive"
- Compound: "ClCC(Cl)(Cl)Cl"
  outcome: "inactive"

get_value(item= "CCS(=O)(=O)CCSP(=O)(OC)OC" , readout=outcome) returns inactive

get_value(item= "CCOP(=O)(OCC)OP(=O)(OCC)OCC" , readout=outcome) returns inactive

get_value(item= "ClC(Cl)(Cl)C(Cl)(Cl)Cl" , readout=outcome) returns inactive

get_value(item= "CCCCc1ccc(O)cc1" , readout=outcome) returns inactive

get_value(item= C(CCOCC1CO1)COCC1CO1 (centres undefined) , readout=outcome) returns inactive

get_value(item= "CC1(C)CON(Cc2ccccc2Cl)C1=O" , readout=outcome) returns inactive
